Measured IC50 values are reported for all entries that follow.
Test system: P. falciparum infected erythrocytes
assay procedure: P. falciparum growth inhibition assay ([3H]hypoxanthine incorporation)
Type: cell-based, Plasmodium falciparum
settings: Plasmodium falciparum, Erythrocyte, [3H]hypoxanthine incorporation, 0.5% parasitemia, 2% hematocrit, 48 h; read-out: PfIC50 Media
Structures can show the parent of a compound that is named as a salt.

Known IC50 results, listed for orientation:
O=C(c1ccc(OCC(F)Cn2cnnn2)cc1)N1CC[C@H](c2ccc(F)cc2)C1 (single isomer, unassigned) ... 100 to 500 nM
O=C(c1ccc(OC[C@H](F)Cn2ncnn2)cc1)N1CC[C@H](c2ccc(F)cc2)C1 ... < 100 nM
O=C(c1ccc(OC[C@H](O)Cn2ncnn2)cc1)N1CC[C@H](c2ccc(F)cc2)C1 ... < 100 nM
O=C(c1ccc(OC[C@@H](F)Cn2ncnn2)cc1)N1CC[C@H](c2ccc(F)cc2)C1 ... < 100 nM
CC(O)(COc1ccc(C(=O)N2CC[C@H](c3ccc(F)cc3)C2)cc1)Cn1ncnn1 (single isomer, unassigned) ... 100 to 500 nM
N#Cc1nnn(C[C@@H](O)COc2ccc(C(=O)N3CC[C@H](c4ccc(F)cc4)C3)cc2)n1 ... 100 to 500 nM

Input line: Reported IC50, compound `O=C(c1ccc(OC[C@H](O)Cn2cnnc2)cc1)N1CC[C@H](c2ccc(F)cc2)C1` : ____
Output line: 1000 to 5000 nM

Input line: Also N[C@@H](COc1ccc(C(=O)N2CC[C@H](c3ccc(F)cc3)C2)cc1)Cn1nccn1 [Example 53, Hydrochloride] ?
Output line: < 100 nM

Input line: Also `N[C@@H](COc1ccc(C(=O)N2CC[C@H](c3ccc(Cl)cc3)C2)cc1)Cn1ncnn1` ?
Output line: < 100 nM
